Test system: IL-8 secretion from CF lung epithelial cells
measurementNotes: Suppression of constitutive IL-8 secretion from CF lung epithelial cells
Type: cell-based, human
cond: Homo sapiens, Epithelial cell, constitutive IL-8 hypersecretion, read-out: K50 (concentration causing a 50% reduction of IL-8 secretion)
We begin with a simple list: items and their reported pIC50.
// field semantics: pIC50 = negative decimal log of concentration (mol/L)

Some solved entries appear below for comparison.
compoundStructure	assayEndpoint	measuredResult
CO[C@H]1C[C@H](O[C@H]2CC[C@@]3(C)[C@H](CC[C@@H]4[C@@H]3CC[C@]3(C)[C@@H](C5=CC(=O)OC5)[C@@H](OC(C)=O)C[C@]43O)C2)O[C@@H](C)[C@@H]1O	pIC50	8.70
C[C@]12CC[C@H](O)C[C@H]1CC[C@@H]1[C@@H]2CC[C@]2(C)[C@@H](C3=CC(=O)OC3)CC[C@]12O	pIC50	7.13

-- ask Data request, read-out pIC50, for C[C@@H]1O[C@@H](O[C@H]2C[C@@H](O)[C@]3(CO)[C@H]4[C@H](O)C[C@]5(C)[C@@H](C6=CC(=O)OC6)CC[C@]5(O)[C@@H]4CC[C@]3(O)C2)[C@H](O)[C@H](O)[C@H]1O
-- reply 8.10
